Target: GSK-3β (Homo sapiens, UniProt P49841)
Sequence (P49841 whole entry, species assumed): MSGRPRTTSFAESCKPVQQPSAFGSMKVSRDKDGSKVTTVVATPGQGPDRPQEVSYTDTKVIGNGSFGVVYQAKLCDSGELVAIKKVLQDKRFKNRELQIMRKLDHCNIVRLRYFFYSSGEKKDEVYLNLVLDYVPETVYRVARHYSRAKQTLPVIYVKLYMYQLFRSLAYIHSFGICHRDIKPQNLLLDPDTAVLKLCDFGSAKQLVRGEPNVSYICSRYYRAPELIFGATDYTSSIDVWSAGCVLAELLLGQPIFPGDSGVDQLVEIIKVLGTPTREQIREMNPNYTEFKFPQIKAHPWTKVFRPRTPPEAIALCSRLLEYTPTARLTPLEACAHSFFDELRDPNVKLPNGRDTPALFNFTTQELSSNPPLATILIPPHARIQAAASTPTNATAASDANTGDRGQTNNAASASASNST
Assay: GSK3 kinase scintillation proximity assay (phosphorylation of biotinylated glycogen synthase peptide)
Assay type: biochemical
Conditions: 20 nM kinase, 2.5 uM ATP, 2.8 uM peptide substrate, 40 minutes at room temperature; pIC50 = -log IC50 in Molar
pIC50: −log10 of the molar value. Where a name gives a salt, the structure may show the parent alone.
Reported values of pIC50 for individual entries

> print(dat)
                                   molecule                                 target  endpoint  endpoint.result
1  Fc1ccc(/C=N/Nc2ncnc3c2cnn3-c2cccc3[nH]cnc23)cc1 [Example 29]  GSK-3β (Homo sapiens, UniProt P49841)     pIC50           > 7.00
2  C(=N\Nc1ncnc2c1cnn2-c1ccncc1)/c1ccncc1 [Example 26]  GSK-3β (Homo sapiens, UniProt P49841)     pIC50           > 7.00
3  COc1cccc(-n2ncc3c(N/N=C/c4ccc(C(=O)NCCCN5CCCC5)cc4)ncnc32)n1 [Example 12]  GSK-3β (Homo sapiens, UniProt P49841)     pIC50           > 7.00

Supply recorded pIC50 for COc1cccc(-n2ncc3c(N/N=C/c4ccc(C(=O)NCCS(C)(=O)=O)cc4)ncnc32)n1 [Example 9] here. > 7.00

Supply recorded pIC50 for COc1cccc(-n2ncc3c(N/N=C/c4ccc(C(=O)O)cc4)ncnc32)n1 [Example 8] here. 6.00 to 7.00

Supply recorded pIC50 for COc1cccc(-n2ncc3c(N/N=C/c4ccnc(Cl)c4)ncnc32)n1 [Example 4] here. 6.00 to 7.00

Supply recorded pIC50 for CS(=O)(=O)c1ccc(/C=N/Nc2ncnc3c2cnn3-c2cccc3[nH]cnc23)cc1 [Example 30] here. > 7.00

Supply recorded pIC50 for O=C(O)c1ccc(/C=N/Nc2ncnc3c2cnn3-c2cccc3[nH]cnc23)cc1 [Example 31] here. > 7.00

Supply recorded pIC50 for CN(C)CCNS(=O)(=O)c1ccc(/C=N/Nc2ncnc3c2cnn3-c2nccs2)cc1 [Example 25] here. > 7.00

Supply recorded pIC50 for Nc1ccc(/C=N/Nc2ncnc3c2cnn3-c2ccccn2)cn1 [Example 17, trifluoroacetate] here. 5.00 to 6.00

Supply recorded pIC50 for C(=NNc1ncnc2c1cnn2-c1nccs1)c1ccncc1 [Example 24] here. > 7.00

Supply recorded pIC50 for CC(C)(C)OC(=O)N1CCC(/C=N/Nc2ncnc3c2cnn3-c2ccccn2)CC1 [Example 15] here. 5.00 to 6.00

Supply recorded pIC50 for COc1cccc(-n2ncc3c(N/N=C/c4ccc(N(C)C)nc4)ncnc32)n1 [Example 3] here. 6.00 to 7.00

Supply recorded pIC50 for CS(=O)(=O)CCNC(=O)c1ccc(/C=N/Nc2ncnc3c2cnn3-c2ccccn2)cc1 [Example 22] here. 6.00 to 7.00

Supply recorded pIC50 for COc1cccc(-n2ncc3c(N/N=C/c4ccc(C(=O)NCCCN(C)C)cc4)ncnc32)n1 [Example 11] here. > 7.00

Supply recorded pIC50 for C(=NNc1ncnc2c1cnn2-c1nccs1)c1cccnc1 [Example 23] here. 6.00 to 7.00

Supply recorded pIC50 for CN(C)CCNC(=O)c1ccc(/C=N/Nc2ncnc3c2cnn3-c2ccccn2)cc1 [Example 21, hydrochloride] here. 6.00 to 7.00

Values from patent US20060167020A1
